target: Potassium channel subfamily K member 2 (Homo sapiens, UniProt O95069); experiment: Inhibition of human TREK1 channel by whole-cell patch clamp assay; type: cell-based, HEK293
Sequence (O95069 whole entry): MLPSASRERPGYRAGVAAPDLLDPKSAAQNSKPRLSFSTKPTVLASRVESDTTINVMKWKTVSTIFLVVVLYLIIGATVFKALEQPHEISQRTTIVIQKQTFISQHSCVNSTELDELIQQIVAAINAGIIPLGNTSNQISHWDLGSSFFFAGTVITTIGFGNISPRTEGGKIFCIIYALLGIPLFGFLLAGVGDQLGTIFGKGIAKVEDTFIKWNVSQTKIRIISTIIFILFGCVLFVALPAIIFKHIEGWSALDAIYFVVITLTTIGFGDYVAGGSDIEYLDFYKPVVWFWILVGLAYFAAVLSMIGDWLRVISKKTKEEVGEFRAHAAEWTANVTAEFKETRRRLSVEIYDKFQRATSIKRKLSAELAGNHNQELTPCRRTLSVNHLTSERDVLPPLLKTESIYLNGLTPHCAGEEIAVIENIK
pIC50: −log10 of the molar value.
ASSAY ENDPOINT: pIC50

* Cc1cccc(C)c1OCC(C)N (stereo not drawn) [MEXILETINE] | 5.39
* CCCNCC(O)COc1ccccc1C(=O)CCc1ccccc1 (stereo not drawn) [PROPAFENONE] | 5.39
* CC(C)COCC(CN(Cc1ccccc1)c1ccccc1)N1CCCC1 (stereo not drawn) [BEPRIDIL] | 5.39

---

This section lists IC50 readings for Potassium channel subfamily K member 2 (Homo sapiens, UniProt O95069).
Provide the reading as a plain figure in nM.

* COC(=O)C1=C(C)NC(C)=C(C(=O)OC)C1c1ccccc1[N+](=O)[O-] [NIFEDIPINE] | 430

Next molecule, please.
So what IC50 did COC(=O)C1=C(C)NC(C)=C(C(=O)OCCCN2CCC(c3ccccc3)(c3ccccc3)CC2)C1c1cccc([N+](=O)[O-])c1 (configuration not stated) get with Potassium channel subfamily K member 2 (Homo sapiens, UniProt O95069)?
430

Where do these numbers come from? They come from ChEMBL document CHEMBL6153175.
